Task for the reader: assign each of the following sequences its reported self-aminoacylation.
Test system: biotinyl-Leu-oxazolone
Experiment: self-aminoacylation, catalytic enhancement (BLO) (fold over background); higher = more active; k-Seq, kA / k0A0; sequences stand for … in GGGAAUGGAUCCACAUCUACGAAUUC…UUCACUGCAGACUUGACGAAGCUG
Fewer inactive variants are shown than the library holds.
Give bare numbers.

Known results for sequences:
UCACACUUCAAGAAAUCGGUC [Fam1B.1 aminoacylation ribozyme variant] : 0.906
AAGUAUGCGAAUAGUCGCAAG [Fam3.1 aminoacylation ribozyme variant] : 1.19

Batch request: self-aminoacylation for each of the following sequences.
1. CUACUUCAAACAAUUAGUCUG [Fam1A.1 aminoacylation ribozyme variant]
2. AUUACCCUGGCCAUCUAGUGA [Fam2.1 aminoacylation ribozyme variant]
3. AUUCACCUAGGUCUUCGGGUG [Fam2.2 aminoacylation ribozyme variant]
4. AAUACCCUGCUCAUCGAGUGA [Fam2.1 aminoacylation ribozyme variant]
5. AAGUUCGCUAAUAGUAGCAAG [Fam3.1 aminoacylation ribozyme variant]
6. AAGUUUGCUAAUAGACGGAAG [Fam3.1 aminoacylation ribozyme variant]
7. CUACGUCAAACUAUCGGUCUG [Fam1A.1 aminoacylation ribozyme variant]
8. GAGUUUGCUAGUAGUCGCAAG [Fam3.1 aminoacylation ribozyme variant]

1. 0.712
2. 5.69
3. 5.48
4. 1.6
5. 1.28
6. 0.406
7. 1.72
8. 0.89

Assign self-aminoacylation to the following record: CUACUUCAGACAAUCGGACUG [Fam1A.1 aminoacylation ribozyme variant]
0.662

###

Kindly supply the reported self-aminoacylation values for the records listed here.
Test system: biotinyl-Leu-oxazolone
Test: self-aminoacylation, catalytic enhancement (BLO) (fold over background); higher = more active; k-Seq, kA / k0A0; sequences stand for … in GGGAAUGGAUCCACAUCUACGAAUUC…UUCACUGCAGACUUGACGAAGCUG
Fewer inactive variants are shown than the library holds.
Answers are plain numbers.

CCACUUCAAACACUCGGUCUG [Fam1A.1 aminoacylation ribozyme variant] : 1.73
AUUCACCUAGUUCAUCGGGGG [Fam2.2 aminoacylation ribozyme variant] : 2.23
AUGUUUGCUAAUAGUCGCACG [Fam3.1 aminoacylation ribozyme variant] : 1.13
CCAUACUACAAGCAAUCGGUC [Fam1B.1 aminoacylation ribozyme variant] : 0.772

Provide self-aminoacylation values for the following items, in order.
1. AUAACCCUGGUGAUCGAGUGA [Fam2.1 aminoacylation ribozyme variant]
2. AAGUUUGAUAAUGGUCGCAAG [Fam3.1 aminoacylation ribozyme variant]
3. ACUCACCUACGUCAUCGGGUG [Fam2.2 aminoacylation ribozyme variant]
4. CAGUUUGAUAAUAGUCGCAAG [Fam3.1 aminoacylation ribozyme variant]
5. AGUACCCUGGUCAUCGAGCGA [Fam2.1 aminoacylation ribozyme variant]

6.37
0.895
7.79
1.34
2.28

# batch size: 3; output self-aminoacylation per entry
1. AAUACCCCGGUCAUCGAGUGA [Fam2.1 aminoacylation ribozyme variant]
2. CUACUCCAAACAAGCGGUCUG [Fam1A.1 aminoacylation ribozyme variant]
3. AUACACCAAGGUCAUCGGGUG [Fam2.2 aminoacylation ribozyme variant]

[5.27, 0.802, 6.13]

###

For each entry below, report its self-aminoacylation value.
Tested on: biotinyl-Ile-oxazolone
Assay: self-aminoacylation, catalytic enhancement (BIO) (fold over background); higher = more active; k-Seq, kA / k0A0; sequences stand for … in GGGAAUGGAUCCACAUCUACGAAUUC…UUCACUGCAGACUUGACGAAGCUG
Variants at the floor of the assay were thinned out.
Numbers only.

AUUCACAUGGGUCAUCGGGUG [Fam2.2 aminoacylation ribozyme variant] : 5.6
CUACUUCGAACAAUCGGUCCG [Fam1A.1 aminoacylation ribozyme variant] : 0.879
CGACACUUCAAGCACUCGGUC [Fam1B.1 aminoacylation ribozyme variant] : 1.28

Can you give me self-aminoacylation for all of these, one by one?
1. AUUCACUGAGGUCAUCGGGUG [Fam2.2 aminoacylation ribozyme variant]
2. CCACCCUUCAAGCUAUCGGUC [Fam1B.1 aminoacylation ribozyme variant]
3. AUUCAACUAGGUCAUCGGGUA [Fam2.2 aminoacylation ribozyme variant]
4. CGACUUCAAACAAUCCGUCUG [Fam1A.1 aminoacylation ribozyme variant]

1. 4.51
2. 1.08
3. 1.78
4. 1.27

// for each sequence below, give its self-aminoacylation
1. AUUCACCUAGGUCGGCGGGUG [Fam2.2 aminoacylation ribozyme variant]
2. AAGUUUGCUAAUAUUAGCAAG [Fam3.1 aminoacylation ribozyme variant]
3. CUCCUUCAAACUAUCGGUCUG [Fam1A.1 aminoacylation ribozyme variant]

1: 4.39; 2: 1.28; 3: 1.14

###

System: biotinyl-Phe-oxazolone
Assay: self-aminoacylation, catalytic enhancement (BFO) (fold over background); higher = more active; k-Seq, kA / k0A0; sequences stand for … in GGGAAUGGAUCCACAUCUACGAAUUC…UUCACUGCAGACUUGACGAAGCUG
This sample holds only a part of the variants without activity.
Observation type: self-aminoacylation

AUUACCCUGGUCAUAGCGUGA [Fam2.1 aminoacylation ribozyme variant] : 51.8
CCACACUUCCAGAAAUCGGUC [Fam1B.1 aminoacylation ribozyme variant] : 1.69
AAGUUUGCUAACAGUCGCAAA [Fam3.1 aminoacylation ribozyme variant] : 2.28
CAACACUUCAAGCAAGCGGUC [Fam1B.1 aminoacylation ribozyme variant] : 0.831

Hey, quick one: what's self-aminoacylation for each of these?
1. CUCCUUCAAAGAAUCGGUCUG [Fam1A.1 aminoacylation ribozyme variant]
2. CUACUUCAAACCAUCGGUUUG [Fam1A.1 aminoacylation ribozyme variant]

1: 6.59; 2: 0.597

###

System: biotinyl-Leu-oxazolone
Test: self-aminoacylation, catalytic enhancement (BLO) (fold over background); higher = more active; k-Seq, kA / k0A0; sequences stand for … in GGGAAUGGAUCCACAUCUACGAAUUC…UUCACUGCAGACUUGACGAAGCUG
This sample holds only a part of the variants without activity.
Can you tell me self-aminoacylation for the items I'm about to list?

Consider the reported self-aminoacylation for these sequences:
CUACUUCAAGCAAUCGGUUUG [Fam1A.1 aminoacylation ribozyme variant] : 1.35
CUUCACCUAGGUCUUCGGGUG [Fam2.2 aminoacylation ribozyme variant] : 6.81

In the following, a different sequence is considered.
// fetch self-aminoacylation given entry AUACCCCUGGUCAUCGAGUGA [Fam2.1 aminoacylation ribozyme variant]
5.62

###

Tested on: biotinyl-Phe-oxazolone
Assay: self-aminoacylation, catalytic enhancement (BFO) (fold over background); higher = more active; k-Seq, kA / k0A0; sequences stand for … in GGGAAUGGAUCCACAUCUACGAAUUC…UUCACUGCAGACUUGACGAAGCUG
This sample holds only a part of the variants without activity.
Use Criterion met when the recorded self-aminoacylation is no lower than 20; use Criterion not met when it is lower.

Could you verify whether the entry CCACCCUUCAAGCAAUCGGGC [Fam1B.1 aminoacylation ribozyme variant] shows self-aminoacylation of no less than 20?
Criterion not met

Hello, I need to know if ACACACUGCAAGCAAUCGGUC [Fam1B.1 aminoacylation ribozyme variant] has measured self-aminoacylation not below 20. Thanks!
Criterion not met

For this sequence, is measured self-aminoacylation 20 or higher? AUUCACCUAGGUCUUCGUGUG [Fam2.2 aminoacylation ribozyme variant]
Criterion not met

Textbook exercise: given the entry AUUACCCUAGUCAUCUAGUGA [Fam2.1 aminoacylation ribozyme variant] , state whether its self-aminoacylation is greater than or equal to 20.
Criterion met

Is self-aminoacylation at least 20? Consider CUACACUUCAAGCAAUAGGUC [Fam1B.1 aminoacylation ribozyme variant]
Criterion not met

Given the entry ACACACUUCAAACAAUCGGUC [Fam1B.1 aminoacylation ribozyme variant] , answer whether its self-aminoacylation meets or surpasses 20.
Criterion met

Given the entry AUUCAGCUAUGUCAUCGGGUG [Fam2.2 aminoacylation ribozyme variant] , answer whether its self-aminoacylation meets or surpasses 20.
Criterion not met

Assess whether reported self-aminoacylation for AUUCAACUAGGUCCUCGGGUG [Fam2.2 aminoacylation ribozyme variant] sits at 20 or higher.
Criterion met

###

For each of the sequences below, state its self-aminoacylation.
Test system: biotinyl-Met-oxazolone
Assay: self-aminoacylation, catalytic enhancement (BMO) (fold over background); higher = more active; k-Seq, kA / k0A0; sequences stand for … in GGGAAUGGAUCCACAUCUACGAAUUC…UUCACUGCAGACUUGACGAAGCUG
Variants at the floor of the assay were thinned out.

Examples with their reported self-aminoacylation follow.
AUUACCCUGGACAUCGAGGGA [Fam2.1 aminoacylation ribozyme variant] : 2.18
AACUUUGCUAAUAGUGGCAAG [Fam3.1 aminoacylation ribozyme variant] : 0.764
AUUACCCUGGUCAUUGAGGGA [Fam2.1 aminoacylation ribozyme variant] : 1.25
GACUUUGCUAAUAGUCGCAAG [Fam3.1 aminoacylation ribozyme variant] : 2.11

# map each sequence to its self-aminoacylation
1. AUUACCGUGGUCAUCAAGUGA [Fam2.1 aminoacylation ribozyme variant]
2. GUACUUCAAACAAUCGGUCUU [Fam1A.1 aminoacylation ribozyme variant]
3. CCACACUUCAAGCAAUCUGUG [Fam1B.1 aminoacylation ribozyme variant]
4. AUUCAGCUAGGUCAUAGGGUG [Fam2.2 aminoacylation ribozyme variant]

[2.83, 1.14, 0.547, 1.09]

Here are 8 sequences. What values of self-aminoacylation were reported for them?
1. CUACUUUAAACAAUAGGUCUG [Fam1A.1 aminoacylation ribozyme variant]
2. CAGCUUGCUAAUAGUCGCAAG [Fam3.1 aminoacylation ribozyme variant]
3. AUUAACCUGGUCAUCUAGUGA [Fam2.1 aminoacylation ribozyme variant]
4. AUUAACCUGGUCAUCCAGUGA [Fam2.1 aminoacylation ribozyme variant]
5. CUACUUCAAACAAUCGGGGUG [Fam1A.1 aminoacylation ribozyme variant]
6. AUUACCCUCGACAUCGAGUGA [Fam2.1 aminoacylation ribozyme variant]
7. CCACACUUCACGCAACCGGUC [Fam1B.1 aminoacylation ribozyme variant]
8. CUACUUCAAAGAAUCGGUCUA [Fam1A.1 aminoacylation ribozyme variant]

[0.979, 1.72, 9.41, 4.16, 3.77, 11.5, 1.21, 0.608]

// batch mode: one self-aminoacylation value per listed entry
1. AUUACCCUGGUCAACGAGGGA [Fam2.1 aminoacylation ribozyme variant]
2. AUUCAUCUAGGUCGUCGGGUG [Fam2.2 aminoacylation ribozyme variant]
3. AAGUUCGCUAAUAGUCGCAGG [Fam3.1 aminoacylation ribozyme variant]

[1.49, 2.1, 2.87]

Each sequence below has a recorded value; state its self-aminoacylation.
1. CUACUUCGCACAAUCGGUCUG [Fam1A.1 aminoacylation ribozyme variant]
2. AAGUUUGCUAAUCGUCGCAAU [Fam3.1 aminoacylation ribozyme variant]
3. AAGUUGGCUGAUAGUCGCAAG [Fam3.1 aminoacylation ribozyme variant]

1: 0.94; 2: 1.3; 3: 1.49

Can you give me self-aminoacylation for all of these, one by one?
1. AAGUUUGUUAAUAGUCGCAAA [Fam3.1 aminoacylation ribozyme variant]
2. AUUCAGCUAGGUGAUCGGGUG [Fam2.2 aminoacylation ribozyme variant]

[1.63, 4.52]

Taken from the supplement of paper PMC9233669.
